Test: refractive index (Na D-line) (dimensionless)
Conditions: 293.15 K; 101.33 kPa; Liquid; Standard Abbe refractometry
Consider the following molecules and their measured refractive index readings.
// print number alone

CCCO : 1.3855
CCCCO : 1.3992
CCCCCCC : 1.3876

Now let's try a different one.
Asked: Please indicate refractive index recorded for "CCCCCCCC"
Given back: 1.3973

---

Assay: activity coefficient (dimensionless); of the first substance listed, at infinite dilution; xn = mol fraction of the nth substance listed
Conditions: 333.15 K; Liquid; Static method; x1 = 0
Consider the following compounds and their measured activity coefficient readings.
// print number alone

Answered cases to consult:
CCCCO [butan-1-ol] + CCCCCCC : 14.6
CCCCO [butan-1-ol] + CCCCCCCC : 14.5
CCCO [propan-1-ol] + CCCCCCCC : 16.2

Asked: Please indicate activity coefficient recorded for CCCO [propan-1-ol] + CCCCCCC
Given back: 15.8
